biological target: B-Raf V600E (Homo sapiens, UniProt P15056, V600E); test: ELISA-based assay of inhibitory activity against B-Raf V600E (MEK to p-MEK); type: biochemical; conditions: B-Raf V600E; read-out: IC50 B-RAF V600E
Sequence (P15056 whole entry V600E): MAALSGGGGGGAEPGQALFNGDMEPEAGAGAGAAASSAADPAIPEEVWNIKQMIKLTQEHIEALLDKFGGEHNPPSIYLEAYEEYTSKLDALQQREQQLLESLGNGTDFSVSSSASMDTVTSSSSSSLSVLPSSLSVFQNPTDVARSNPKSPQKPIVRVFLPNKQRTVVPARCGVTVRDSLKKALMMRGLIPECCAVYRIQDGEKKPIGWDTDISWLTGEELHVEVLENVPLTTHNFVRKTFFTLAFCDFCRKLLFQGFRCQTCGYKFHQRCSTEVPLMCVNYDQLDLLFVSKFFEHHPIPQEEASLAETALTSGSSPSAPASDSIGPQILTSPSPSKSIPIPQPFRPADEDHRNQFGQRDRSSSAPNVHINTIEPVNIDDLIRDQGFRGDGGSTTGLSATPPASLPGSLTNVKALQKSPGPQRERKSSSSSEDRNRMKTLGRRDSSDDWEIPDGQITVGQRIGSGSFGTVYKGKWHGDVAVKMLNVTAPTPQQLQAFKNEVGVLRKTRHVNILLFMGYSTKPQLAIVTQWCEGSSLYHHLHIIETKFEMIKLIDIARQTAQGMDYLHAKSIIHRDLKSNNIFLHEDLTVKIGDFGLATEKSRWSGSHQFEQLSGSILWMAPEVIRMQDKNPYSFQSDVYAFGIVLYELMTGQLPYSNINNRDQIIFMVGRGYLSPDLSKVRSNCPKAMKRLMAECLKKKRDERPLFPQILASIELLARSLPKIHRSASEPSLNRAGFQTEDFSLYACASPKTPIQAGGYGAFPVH
Property Label: pIC50
Give bare numbers, as −log10 of the molar value.

QUERY: Any idea what pIC50 was measured for Cc1cc(C(C#N)c2ccc(Cl)cc2)c(Cl)cc1NC(=O)c1cc(I)cc(I)c1O (stereo not shown) [closantel] ?
RESULT: 5.72

====

target: B-Raf V600E (Homo sapiens, UniProt P15056, V600E); assay: ELISA-based assay of inhibitory activity against B-Raf V600E (MEK to p-MEK); type: biochemical
Property Label: IC50 (µM)
Answers are plain numbers, in µM.

QUERY: Could you share which IC50 value was measured for O=C(Nc1ccc(Oc2ccc(Cl)cc2)c(Cl)c1)c1cc(I)cc(I)c1O [rafoxanide] ?
RESULT: 0.07

====

target: B-Raf S602A (Homo sapiens, UniProt P15056, S602A); construct: B-RAFT508A and B-RAFS602A, residues 433–726; made in house; host or cells: Sf9 insect cells (pFastBac Dual); test: ELISA-based assay, single point mutant B-Raf S602A; format: biochemical; conditions: B-Raf S602A mutant; read-out: IC50 B-RAF S602A
Sequence (P15056 433-726 S602A): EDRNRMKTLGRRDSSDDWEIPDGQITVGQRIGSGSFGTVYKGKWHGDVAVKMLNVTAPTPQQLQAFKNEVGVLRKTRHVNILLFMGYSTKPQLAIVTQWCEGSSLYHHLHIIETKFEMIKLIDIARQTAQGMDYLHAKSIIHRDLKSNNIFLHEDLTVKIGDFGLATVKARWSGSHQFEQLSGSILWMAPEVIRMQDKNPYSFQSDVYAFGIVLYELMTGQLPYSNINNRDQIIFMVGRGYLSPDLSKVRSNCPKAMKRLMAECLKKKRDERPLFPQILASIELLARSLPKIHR
Property Label: IC50
Numeric answer plus unit only.

QUERY: API: value(readout=IC50, system=B-Raf S602A (Homo sapiens, UniProt P15056, S602A)) for record Cc1cc(C(C#N)c2ccc(Cl)cc2)c(Cl)cc1NC(=O)c1cc(I)cc(I)c1O (stereo not shown) [closantel]
RESULT: 6.35 µM

====

molecular target: B-Raf S602A (Homo sapiens, UniProt P15056, S602A); construct: B-RAFT508A and B-RAFS602A, residues 433–726; made in house; host or cells: Sf9 insect cells (pFastBac Dual); assay: ELISA-based assay, single point mutant B-Raf S602A; assay type: biochemical
Property Label: pIC50
Numbers only, as −log10 of the molar value.

QUERY: Give B-Raf S602A (Homo sapiens, UniProt P15056, S602A) pIC50 for O=C(Nc1ccc(Oc2ccc(Cl)cc2)c(Cl)c1)c1cc(I)cc(I)c1O [rafoxanide]
RESULT: 4.94

====

biological target: B-Raf T508A (Homo sapiens, UniProt P15056, T508A); construct: B-RAFT508A and B-RAFS602A, residues 433–726; made in house; host or cells: Sf9 insect cells (pFastBac Dual); assay: ELISA-based assay, single point mutant B-Raf T508A; format: biochemical; conditions: B-Raf T508A mutant; read-out: IC50 B-RAF T508A
Sequence (P15056 433-726 T508A): as the sequence (P15056 433-726 S602A) above, with T76A, A170S counted along it
Property Label: pIC50
One number for each entry, as −log10 of the molar value.

QUERY: Hello, I am looking for reported pIC50 with B-Raf T508A (Homo sapiens, UniProt P15056, T508A) for Cc1cc(C(C#N)c2ccc(Cl)cc2)c(Cl)cc1NC(=O)c1cc(I)cc(I)c1O (stereo not shown) [closantel] . Could you help?
RESULT: 5.22

====

Biological target: B-Raf T508A (Homo sapiens, UniProt P15056, T508A)
Construct: B-RAFT508A and B-RAFS602A, residues 433–726; made in house; host or cells: Sf9 insect cells (pFastBac Dual)
Assay: ELISA-based assay, single point mutant B-Raf T508A
Type: biochemical
Excerpt: The mutant sequence of human BRAF kinase domain (B-RAFT508A and B-RAFS602A, residues 433–726) was inserted into the plasmid of pFastBacTM Dual. Then the recombinant plasmid was transported into the sf9 cells. Mutant protein was expressed and purified respectively.
Property Label: IC50 (µM)
Numbers only, in µM.

QUERY: Need IC50 of O=C(Nc1ccc(Oc2ccc(Cl)cc2)c(Cl)c1)c1cc(I)cc(I)c1O [rafoxanide] , thanks.
RESULT: 15.7
